The values you see were collected from PubChem BioAssay AID2060899.

system: 565726-208-R1-J5-PDC complex spheroids, growth inhibition; assay: Anticancer human tumor 565726-208-R1-J5-PDC patient-derived pancreatic adenocarcinoma cell line growth inhibition [RAS]; details: curve of first compound; second compound 0.003 µM

| Molecule | Study System | IC50 |
| --- | --- | --- |
| CC(C)NCC(C(=O)N1CCN(c2ncnc3c2C(C)CC3O)CC1)c1ccc(Cl)cc1 (configuration not stated) + CCn1c(-c2cccnc2C(C)OC)c2c3cc(ccc31)N1CCOC(CC(NC(=O)C(C(C)C)N(C)C(=O)C3(F)CCN(C(=O)C#CC(C)(C)N(C)C)CC3)C(=O)N3CCCC(N3)C(=O)OCC(C)(C)C2)C1 | 565726-208-R1-J5-PDC complex spheroids, growth inhibition | > 10 µM |
| CC1(O)CCCC1n1c(=O)c(C(F)F)cc2cnc(NC3CCN(S(C)(=O)=O)CC3)nc21 (configuration not stated) + CCn1c(-c2cc(N3CCN(C)CC3)cnc2C(C)OC)c2c3cc(ccc31)-c1csc(n1)CC(NC(=O)C1CC1C)C(=O)N1CCCC(N1)C(=O)OCC(C)(C)C2 | 565726-208-R1-J5-PDC complex spheroids, growth inhibition | < 0.0316 µM |

====

System: 565726-208-R1-J5-PDC complex spheroids, growth inhibition
Test: Anticancer human tumor 565726-208-R1-J5-PDC cell line growth inhibition [RAS];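 also: spheroids exposed to compounds for seven days before readout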;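 as to viability, T/C: 100% = DMSO vehicle control viability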
Details: second compound 0.316 µM; first compound 0.00949 µM; stronger effect = lower value
Source text: RAS pathway inhibitors in Combinations in Complex Spheroids A high-throughput screen of multi-cell type tumor spheroids was designed to identify active combinations of RAS pathway inhibitors and targeted small molecules. Complex spheroids include a stromal component modeled by human endothelial cells (HUVEC) and fibroblasts modeled by human mesenchymal stem cells (MSCs). […] Compounds. […] If the clinical Cmax for an agent had not been determined, the highest concentration tested was 10 microM. […]
Listed next: entries and their corresponding viability, T/C.

| Compound | viability, T/C / % |
| --- | --- |
| CC1(C)CCC(Nc2ncc(C(F)(F)F)c(-c3c[nH]c4c(P(C)(C)=O)c(C#N)ccc34)n2)CN1 (centres undefined) + C#Cc1c(F)ccc2cc(O)cc(-c3ncc4c(N5CC6CCC(C5)N6)nc(OCC56CCCN5CC(F)C6)nc4c3F)c12 | 42.5 |
| CC1(C)CCC(Nc2ncc(C(F)(F)F)c(-c3c[nH]c4c(P(C)(C)=O)c(C#N)ccc34)n2)CN1 (centres undefined) + C=CC(=O)N1CCN(c2nc(OCC3CCCN3C)nc3c(F)c(-c4nc(N)cc(C)c4C(F)(F)F)c(Cl)cc23)C(C)C1 | 40.2 |
| CCc1c2c(nc3ccc(O)cc13)-c1cc3c(c(=O)n1C2)COC(=O)[C@]3(O)CC + C=CC(=O)N1CCN(c2nc(OCC3CCCN3C)nc3c(F)c(-c4nc(N)cc(C)c4C(F)(F)F)c(Cl)cc23)C(C)C1 | 33.1 |
| CCc1c2c(nc3ccc(O)cc13)-c1cc3c(c(=O)n1C2)COC(=O)[C@]3(O)CC + C#Cc1c(F)ccc2cc(O)cc(-c3ncc4c(N5CC6CCC(C5)N6)nc(OCC56CCCN5CC(F)C6)nc4c3F)c12 | 30.2 |

====

Listed next: entries and their corresponding viability, T/C.
system: 565726-208-R1-J5-PDC complex spheroids, growth inhibition; experiment: Anticancer human tumor 565726-208-R1-J5-PDC cell line growth inhibition [RAS]; details: second compound 1 µM; first compound 0.316 µM; stronger effect = lower value;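 also: spheroids exposed to compounds for seven days before readout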;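 as to viability, T/C: 100% = DMSO vehicle control viability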

| Molecule | Study System | viability, T/C |
| --- | --- | --- |
| Nc1ccn(C2OC(CO)C(O)C2(F)F)c(=O)n1 (stereo not given) + C#Cc1c(F)ccc2cc(O)cc(-c3ncc4c(N5CC6CCC(C5)N6)nc(OCC56CCCN5CC(F)C6)nc4c3F)c12 | 565726-208-R1-J5-PDC complex spheroids, growth inhibition | 47.8% |
| C=CC(=O)Nc1cc(Nc2nccc(-c3cn(C)c4ccccc34)n2)c(OC)cc1N(C)CCN(C)C + C=CC(=O)N1CCN(c2nc(OCC3CCCN3C)nc3c(F)c(-c4nc(N)cc(C)c4C(F)(F)F)c(Cl)cc23)C(C)C1 | 565726-208-R1-J5-PDC complex spheroids, growth inhibition | 87.3% |
| Cc1nc(N2CCC3(CC2)COC(C)C3N)c(CO)nc1Sc1ccnc(N)c1Cl (stereo not given) + C=CC(=O)N1CCN(c2nc(OCC3CCCN3C)nc3c(F)c(-c4nc(N)cc(C)c4C(F)(F)F)c(Cl)cc23)C(C)C1 | 565726-208-R1-J5-PDC complex spheroids, growth inhibition | 78.3% |
| CC(C)NCC(C(=O)N1CCN(c2ncnc3c2C(C)CC3O)CC1)c1ccc(Cl)cc1 (stereo not given) + C=CC(=O)N1CCN(c2nc(OCC3CCCN3C)nc3c(F)c(-c4nc(N)cc(C)c4C(F)(F)F)c(Cl)cc23)C(C)C1 | 565726-208-R1-J5-PDC complex spheroids, growth inhibition | 130% |
| CCC(CC)c1cc(NC2CCC(N)C2)n2nccc2n1 (stereo not given) + C=CC(=O)N1CCN(c2nc(OCC3CCCN3C)nc3c(F)c(-c4nc(N)cc(C)c4C(F)(F)F)c(Cl)cc23)C(C)C1 | 565726-208-R1-J5-PDC complex spheroids, growth inhibition | 136% |
